molecular target: recombinant biotinylated PD1/CD279 protein (AcroBiosystems PD1-H82E4) (UniProt Q15116 25-167, biotinylated); assay: ELISA; antibody coated on plate, biotinylated antigen titrated, streptavidin-HRP
Sequence (Q15116 25-167 limits assumed): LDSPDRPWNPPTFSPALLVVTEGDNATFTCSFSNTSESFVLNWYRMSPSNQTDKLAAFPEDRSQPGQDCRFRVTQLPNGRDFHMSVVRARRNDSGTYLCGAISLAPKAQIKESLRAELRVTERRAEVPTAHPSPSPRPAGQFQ
For each entry below, report its Kd value.
Answer with a number only, understood to be in nM.

Lookup: Which value of Kd has been reported for CMP-105 (LZM-009) (antibody, V domains shown, Unconjugated parent anti-PD-1 antibody (DAR 0); also called Livzon PD1 AB) VH: QVQLVQSGAEVKKPGASVKVSCKASGYTFTSYYMYWVRQAPGQGLEWMGGVNPSNGGTNFNEKFKSRVTITADKSTSTAYMELSSLRSEDTAVYYCARRDYRYDMGFDYWGQGTTVTVSS VL: EIVLTQSPATLSLSPGERATISCRASKGVSTSGYSYLHWYQQKPGQAPRLLIYLASYLESGVPARFSGSGSGTDFTLTISSLEPEDFATYYCQHSRELPLTFGTGTKVEIK in the records?
Found: 0.035

Lookup: Likewise for CMP-016 (LZM-009 conjugated to CMP-003, DAR 1, K248) (antibody, not fully specified; Nle at 23, 39, 46 and Hse at 41, 71, 104 (as in SEQ ID NO: 3); ~0.5 kDa PEG on Y45; 0.5 kDa PEG on F42Y whose azide end is joined to the DBCO linker of the antibody; the heavy chain carries a chemical linker to CMP-003 on Lys K248 (Eu numbering) of the Fc; DAR 1) VH: QVQLVQSGAEVKKPGASVKVSCKASGYTFTSYYMYWVRQAPGQGLEWMGGVNPSNGGTNFNEKFKSRVTITADKSTSTAYMELSSLRSEDTAVYYCARRDYRYDMGFDYWGQGTTVTVSS VL: EIVLTQSPATLSLSPGERATISCRASKGVSTSGYSYLHWYQQKPGQAPRLLIYLASYLESGVPARFSGSGSGTDFTLTISSLEPEDFATYYCQHSRELPLTFGTGTKVEIK APTSSSTKKTQLQLEHLLLDLQXILNGINNYKNPKLTRXLXYKFYXPKKATELKHLQCLEEELKPLEEVLXLAQSKNFHLRPRDLISNINVIVLELKGSETTFXCEYADETATIVEFLNRWITFSQSIISTLT ?
Found: 0.037

Lookup: Likewise for CMP-028 (LZM-009 conjugated to CMP-003, DAR 1.9, K288) (antibody, not fully specified; Nle at 23, 39, 46 and Hse at 41, 71, 104 (as in SEQ ID NO: 3); ~0.5 kDa PEG on Y45; 0.5 kDa PEG on F42Y whose azide end is joined to the DBCO linker of the antibody; the heavy chain carries a chemical linker to CMP-003 on Lys K288 (Eu numbering) of the Fc; DAR 1.9) VH: QVQLVQSGAEVKKPGASVKVSCKASGYTFTSYYMYWVRQAPGQGLEWMGGVNPSNGGTNFNEKFKSRVTITADKSTSTAYMELSSLRSEDTAVYYCARRDYRYDMGFDYWGQGTTVTVSS VL: EIVLTQSPATLSLSPGERATISCRASKGVSTSGYSYLHWYQQKPGQAPRLLIYLASYLESGVPARFSGSGSGTDFTLTISSLEPEDFATYYCQHSRELPLTFGTGTKVEIK APTSSSTKKTQLQLEHLLLDLQXILNGINNYKNPKLTRXLXYKFYXPKKATELKHLQCLEEELKPLEEVLXLAQSKNFHLRPRDLISNINVIVLELKGSETTFXCEYADETATIVEFLNRWITFSQSIISTLT ?
Found: 0.041

Lookup: Likewise for CMP-041 (LZM-009 conjugated to CMP-095 (IL-7), DAR 1, K248) (antibody, not fully specified; Nle at 17, 27, 54, 69, 147 and Hse at 36, 76, 114 (as in SEQ ID NO: 187); N-terminal amine carries glutaryl-PEG9 whose azide end is joined to the DBCO linker of the antibody; the heavy chain carries a chemical linker to CMP-095 on Lys K248 (Eu numbering) of the Fc; DAR 1, also called Livzon PD1:IL7wt) VH: QVQLVQSGAEVKKPGASVKVSCKASGYTFTSYYMYWVRQAPGQGLEWMGGVNPSNGGTNFNEKFKSRVTITADKSTSTAYMELSSLRSEDTAVYYCARRDYRYDMGFDYWGQGTTVTVSS VL: EIVLTQSPATLSLSPGERATISCRASKGVSTSGYSYLHWYQQKPGQAPRLLIYLASYLESGVPARFSGSGSGTDFTLTISSLEPEDFATYYCQHSRELPLTFGTGTKVEIK DCDIEGKDGKQYESVLXVSIDQLLDSXKEIGSNCLXNEFNFFKRHICDANKEGXFLFRAARKLRQFLKXNSTGDFXLHLLKVSEGTTILLNCTGQVKGRKPAALGEAQPTKSLXENKSLKEQKKLNDLCFLKRLLQEIKTCWNKILXGTKEH ?
Found: 0.035
